Molecular target: Nuclear factor NF-kappa-B p105 subunit (Homo sapiens)
Sequence (P19838 whole entry): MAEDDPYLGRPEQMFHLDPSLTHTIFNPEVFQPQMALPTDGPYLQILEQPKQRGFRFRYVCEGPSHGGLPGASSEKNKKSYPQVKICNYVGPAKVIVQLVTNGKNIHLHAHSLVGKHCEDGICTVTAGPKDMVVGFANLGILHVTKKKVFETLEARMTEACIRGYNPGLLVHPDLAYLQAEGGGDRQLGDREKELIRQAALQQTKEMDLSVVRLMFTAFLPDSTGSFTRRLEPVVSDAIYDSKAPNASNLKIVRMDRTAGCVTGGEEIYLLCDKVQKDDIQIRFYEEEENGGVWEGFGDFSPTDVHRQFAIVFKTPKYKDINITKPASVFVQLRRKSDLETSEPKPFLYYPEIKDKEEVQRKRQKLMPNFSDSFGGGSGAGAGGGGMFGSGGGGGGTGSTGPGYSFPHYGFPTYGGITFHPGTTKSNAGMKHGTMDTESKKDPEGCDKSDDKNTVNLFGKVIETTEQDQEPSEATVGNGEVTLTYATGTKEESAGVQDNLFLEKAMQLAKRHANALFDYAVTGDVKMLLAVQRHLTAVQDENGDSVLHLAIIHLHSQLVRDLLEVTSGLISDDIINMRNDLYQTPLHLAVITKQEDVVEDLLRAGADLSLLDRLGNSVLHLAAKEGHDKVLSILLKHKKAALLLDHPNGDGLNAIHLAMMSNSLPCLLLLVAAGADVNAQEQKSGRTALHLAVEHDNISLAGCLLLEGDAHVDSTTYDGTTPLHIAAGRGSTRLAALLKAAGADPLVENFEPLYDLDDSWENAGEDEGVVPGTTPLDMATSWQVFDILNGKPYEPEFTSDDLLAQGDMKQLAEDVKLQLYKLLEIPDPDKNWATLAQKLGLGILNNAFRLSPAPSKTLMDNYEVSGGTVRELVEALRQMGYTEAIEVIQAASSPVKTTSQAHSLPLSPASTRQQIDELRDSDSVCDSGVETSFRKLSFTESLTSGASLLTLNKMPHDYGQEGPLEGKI
Test: Inhibition of human NF-kappaB p50/DNA interaction using 32P-labeled oligonucleotides as substrate preincubated for 20 mins before substrate addition measured after 20 mins by electrophoretic mobility shift assay
pEC50: recorded values
When answering, recall that pEC50 equals minus log10 of the concentration in mol/L, and write that number alone.

Recorded results for 5 compounds are shown here.
*Q* What value of pEC50 has been recorded for this entry: Cc1c(CC(=O)NCc2ccc(C(=O)O)cc2)c(=O)oc2cc3occ(C(C)(C)C)c3cc12
*A* 3.22

*Q* What value of pEC50 has been recorded for this entry: Cc1coc2c(C)c3oc(=O)c(CC(=O)NCc4ccccc4Cl)c(C)c3cc12
*A* 3.10

*Q* What value of pEC50 has been recorded for this entry: Cc1c(CC(=O)Nc2ccc(CC(=O)O)cc2)c(=O)oc2cc3occ(C(C)(C)C)c3cc12
*A* 3.28

*Q* What value of pEC50 has been recorded for this entry: Cc1c(CCC(=O)Nc2ccc(C(=O)O)cc2)c(=O)oc2cc3oc4c(c3cc12)CCCC4
*A* 5.00

*Q* What value of pEC50 has been recorded for this entry: Cc1oc2c(C)c3oc(=O)c(CCC(=O)Nc4cccc(C(=O)O)c4)c(C)c3cc2c1C
*A* 4.10

Continuing:
*Q* What value of pEC50 has been recorded for this entry: Cc1c(CCC(=O)Nc2ccc(NS(C)(=O)=O)cc2)c(=O)oc2c(C)c3oc4c(c3cc12)CCCC4
*A* 3.00

*Q* What value of pEC50 has been recorded for this entry: Cc1c(CC(=O)Nc2ccccc2C(=O)O)c(=O)oc2cc3occ(C(C)(C)C)c3cc12
*A* 4.10

*Q* What value of pEC50 has been recorded for this entry: CC(=O)Nc1ccc(NC(=O)CCc2c(C)c3cc4c5c(oc4c(C)c3oc2=O)CCCC5)cc1
*A* 3.00

*Q* What value of pEC50 has been recorded for this entry: Cc1c(CC(=O)Nc2cccc(O)c2)c(=O)oc2c(C)c3oc4c(c3cc12)CCCC4
*A* 2.52
